Cited source for all entries: paper PMC4336329

biological target: human ether-à-go-go-related gene (hERG) potassium channel (human, UniProt Q12809); test: primary screen, population patch clamp on CHO cells stably expressing hERG; higher = less effect of the substance;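 also: peak tail current of the secondary pulse compared with the same well before compound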
Sequence (Q12809 whole entry, looked up): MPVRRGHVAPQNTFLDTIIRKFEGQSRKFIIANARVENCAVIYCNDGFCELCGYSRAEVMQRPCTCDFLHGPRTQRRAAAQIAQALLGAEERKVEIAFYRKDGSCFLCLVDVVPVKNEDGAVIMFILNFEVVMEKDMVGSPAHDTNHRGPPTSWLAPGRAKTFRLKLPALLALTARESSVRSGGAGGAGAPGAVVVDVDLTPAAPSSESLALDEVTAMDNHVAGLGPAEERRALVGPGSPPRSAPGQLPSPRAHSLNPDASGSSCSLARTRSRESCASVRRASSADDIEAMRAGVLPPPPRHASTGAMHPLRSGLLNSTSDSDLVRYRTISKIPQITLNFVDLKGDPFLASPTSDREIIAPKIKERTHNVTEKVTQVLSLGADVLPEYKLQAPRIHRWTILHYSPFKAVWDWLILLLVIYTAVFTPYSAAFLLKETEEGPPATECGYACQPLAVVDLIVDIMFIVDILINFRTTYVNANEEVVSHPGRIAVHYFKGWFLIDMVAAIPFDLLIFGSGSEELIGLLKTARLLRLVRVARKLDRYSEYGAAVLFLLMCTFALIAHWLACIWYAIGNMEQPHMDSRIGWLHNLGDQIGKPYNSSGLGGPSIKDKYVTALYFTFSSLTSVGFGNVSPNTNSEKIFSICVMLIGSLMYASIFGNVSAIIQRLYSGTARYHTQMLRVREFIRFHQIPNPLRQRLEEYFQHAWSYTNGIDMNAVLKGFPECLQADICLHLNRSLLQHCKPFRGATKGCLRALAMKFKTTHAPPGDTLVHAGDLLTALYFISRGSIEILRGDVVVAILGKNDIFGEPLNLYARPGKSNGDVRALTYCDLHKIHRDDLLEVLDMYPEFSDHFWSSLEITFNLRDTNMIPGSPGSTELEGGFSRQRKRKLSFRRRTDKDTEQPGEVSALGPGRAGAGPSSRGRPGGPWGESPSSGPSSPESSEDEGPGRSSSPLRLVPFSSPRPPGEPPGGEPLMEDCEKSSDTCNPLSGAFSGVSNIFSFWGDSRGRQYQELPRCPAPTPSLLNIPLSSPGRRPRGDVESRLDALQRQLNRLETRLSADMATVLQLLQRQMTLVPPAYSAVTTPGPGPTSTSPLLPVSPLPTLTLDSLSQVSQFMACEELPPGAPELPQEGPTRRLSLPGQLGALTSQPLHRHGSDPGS
Among all 310,000 compounds or so, about 14,000 (4.5%) showed an effect of 50% or more. The effect is printed as a negative number. The entries come from a sample that favours strong results as a whole.
measured_metric: hERG current change (%, negative = inhibition) at 10uM (%)
The response must be a number in % with no trailing unit.

1. COc1c(Cl)cc(C(=O)Nc2ccccc2-c2ccccc2)cc1Cl	0.345
2. CCN(CC)CCN(C(=O)c1ccc2c(c1)OCCO2)c1nc2c(Cl)cccc2s1.Cl	-54.7
3. CC1CN(S(=O)(=O)c2ccc(C(=O)N(CCCN(C)C)c3nc4c(Cl)cccc4s3)cc2)CC(C)O1.Cl (stereo not shown)	-36.7
4. CCN1C(=O)CC(N2CCN(c3ccc(Cl)cc3)CC2)C1=O (stereo not shown)	-14

Specify the recorded hERG current change (%, negative = inhibition) at 10uM for "Cc1ccc2sc(N(CCN(C)C)C(=O)c3ccc4ccccc4c3)nc2c1C.Cl" , system: human ether-à-go-go-related gene (hERG) potassium channel (human, UniProt Q12809).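 Also: peak tail current of the secondary pulse compared with the same well before compound.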
18.7

Output reported hERG current change (%, negative = inhibition) at 10uM of the compound "COc1ccccc1N(C)C(=O)c1cc(S(=O)(=O)N2CCCC2)cn1C" on human ether-à-go-go-related gene (hERG) potassium channel (human, UniProt Q12809).
-3.55

Look up and report measured hERG current change (%, negative = inhibition) at 10uM (human ether-à-go-go-related gene (hERG) potassium channel (human, UniProt Q12809)) for the following compound: "CC(=O)N1CCc2[nH]c3ccccc3c2C1"
4.55

Return reported hERG current change (%, negative = inhibition) at 10uM for target or system human ether-à-go-go-related gene (hERG) potassium channel (human, UniProt Q12809), item "COc1ccc(C2(C(=O)Nc3ccccc3)CCOCC2)cc1" .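 Also: peak tail current of the secondary pulse compared with the same well before compound.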
-14.2

Give reported hERG current change (%, negative = inhibition) at 10uM for "CCOC(=O)c1c(P(=O)(N2CCOCC2)N2CCOCC2)noc1N" (human ether-à-go-go-related gene (hERG) potassium channel (human, UniProt Q12809))
-0.372

Provide hERG current change (%, negative = inhibition) at 10uM, system human ether-à-go-go-related gene (hERG) potassium channel (human, UniProt Q12809), entry "CN(C)CCN(C(=O)c1ccc2c(c1)OCCO2)c1nc2c(Cl)cccc2s1.Cl"
-59.3
